# PROCEDURE_DETAILS: Pharmacokinetics in moderate hepatic impairment vs matched normal subjects (Example A-13)
# PARTICULARS: human, plasma, 400 mg, AUC, Mean, Single Dose 400 mg, Moderate hepatic impairment
VALUE_KIND: AUC (µg·h/mL)
Numbers only here, please. The scale is µg·h/mL.

Item COC(=O)[C@@H]1CC2=CC(=O)CC[C@]2(C)[C@@]23O[C@@H]2C[C@@]2(C)[C@@H](CC[C@@]24CCC(=O)O4)[C@H]13 [Eplerenone] : provide AUC
51.4

----------
# PROCEDURE_DETAILS: Food effect pharmacokinetic studies, Japan and Ex-Japan (Example A-11)
# Format: in vivo, human
# PARTICULARS: male, human, in vivo, oral, 100 mg, Ex-Japan, single 100 mg, Fed (high fat meal)
VALUE_KIND: Cmax (ng/mL)
Numbers only here, please. The scale is ng/mL.

Item COC(=O)[C@@H]1CC2=CC(=O)CC[C@]2(C)[C@@]23O[C@@H]2C[C@@]2(C)[C@@H](CC[C@@]24CCC(=O)O4)[C@H]13 : provide Cmax
1320

----------
# PROCEDURE_DETAILS: Pharmacokinetics and absorption of [14C]eplerenone in the rat (Example A-9)
# Type: in vivo
# PARTICULARS: plasma; IV 15 mg/kg, male rat
VALUE_KIND: half-life (min)
Numbers only here, please. The scale is min.

Item COC(=O)[C@@H]1CC2=CC(=O)CC[C@]2(C)[C@@]23O[C@@H]2C[C@@]2(C)[C@@H](CC[C@@]24CCC(=O)O4)[C@H]13 : provide half-life
48.2

----------
# PROCEDURE_DETAILS: Pharmacokinetics in moderate hepatic impairment vs matched normal subjects (Example A-13)
# PARTICULARS: human, plasma, 400 mg, Cmax, Mean, Single Dose 400 mg, Moderate
VALUE_KIND: Cmax
Report as: number unit

Item COC(=O)[C@@H]1CC2=CC(=O)CC[C@]2(C)[C@@]23O[C@@H]2C[C@@]2(C)[C@@H](CC[C@@]24CCC(=O)O4)[C@H]13 [Eplerenone] : provide Cmax
3790 ng/mL

----------
# PROCEDURE_DETAILS: Pharmacokinetics in moderate hepatic impairment vs matched normal subjects (Example A-13)
# PARTICULARS: human, plasma, 400 mg, Single Dose AUC(0-∞), linear kinetics assessment, Normal
VALUE_KIND: AUC(0-inf) (ng·h/mL)
Numbers only here, please. The scale is ng·h/mL.

Item COC(=O)[C@@H]1CC2=CC(=O)CC[C@]2(C)[C@@]23O[C@@H]2C[C@@]2(C)[C@@H](CC[C@@]24CCC(=O)O4)[C@H]13 : provide AUC(0-inf)
28700

----------
# PROCEDURE_DETAILS: Food effect pharmacokinetic studies, Japan and Ex-Japan (Example A-11)
# Format: in vivo, human
# PARTICULARS: male, human, in vivo, oral, 100 mg, Japan, single 100 mg, Fasted
VALUE_KIND: Cmax
Report as: number unit

Item COC(=O)[C@@H]1CC2=CC(=O)CC[C@]2(C)[C@@]23O[C@@H]2C[C@@]2(C)[C@@H](CC[C@@]24CCC(=O)O4)[C@H]13 : provide Cmax
1310 ng/mL

----------
# PROCEDURE_DETAILS: Pharmacokinetics in moderate hepatic impairment vs matched normal subjects (Example A-13);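 also: impaired subjects were Child-Pugh Class B with ascites, compared against healthy volunteers matched for sex, age, weight and smoking, blood sampled before and after dosing on Days 1 and 7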
# PARTICULARS: human, plasma, 400 mg, Tmax, least squares mean, Single Dose 400 mg, Moderate Impairment
VALUE_KIND: Tmax (h)
Numbers only here, please. The scale is h.

Item COC(=O)[C@@H]1CC2=CC(=O)CC[C@]2(C)[C@@]23O[C@@H]2C[C@@]2(C)[C@@H](CC[C@@]24CCC(=O)O4)[C@H]13 : provide Tmax
2.7
